Assay comment: Clearance in rat liver microsomes
Assay type: ADME, Microsome
Value kind: microsomal CLint (µL/min/mg)
Give the quantity in µL/min/mg, number only.

### Prompt // Input: NC(N)=N/N=C/c1ccc(Cl)c(Cl)c1 . Output its microsomal CLint only.
### Response 18

====

Subject of test: Neuropeptide FF receptor 2 (Homo sapiens, UniProt Q9Y5X5)
Sequence (Q9Y5X5 whole entry): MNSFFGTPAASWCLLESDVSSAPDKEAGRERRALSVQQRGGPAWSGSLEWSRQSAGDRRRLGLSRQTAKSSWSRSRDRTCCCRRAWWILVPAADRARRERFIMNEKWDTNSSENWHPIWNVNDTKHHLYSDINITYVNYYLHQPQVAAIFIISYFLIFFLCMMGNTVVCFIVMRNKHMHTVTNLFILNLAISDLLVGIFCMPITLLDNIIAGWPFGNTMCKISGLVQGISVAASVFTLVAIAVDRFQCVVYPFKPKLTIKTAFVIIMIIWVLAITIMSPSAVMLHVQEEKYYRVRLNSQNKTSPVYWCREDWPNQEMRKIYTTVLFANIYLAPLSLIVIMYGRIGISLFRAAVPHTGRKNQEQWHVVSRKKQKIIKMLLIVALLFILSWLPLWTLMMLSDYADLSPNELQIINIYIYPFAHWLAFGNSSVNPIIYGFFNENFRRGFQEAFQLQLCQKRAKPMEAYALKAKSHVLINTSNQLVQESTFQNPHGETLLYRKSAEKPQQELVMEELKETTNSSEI
Assay comment: Agonist activity at human NPFF2 receptor expressed in cells assessed as beta-galactosidase levels at […] after 5 days
Format: functional, cell-based
Strictly below 70% in Efficacy: Y. Otherwise: N.

INSERT INTO results (smiles_structure, qualitative_label) VALUES
  ('N=C(N)N/N=C/c1ccc(Cl)c(C(F)(F)F)c1', 'N'),
  ('Cc1ccccc1-c1ccc(/C=N/NC(=N)N)o1', 'N'),
  ('N=C(N)N/N=C/c1ccc(-c2ccccc2C(F)(F)F)s1', 'Y');

### Prompt Answer whether the compound C/C(=N\NC(=N)N)c1ccc(Cl)c(C(F)(F)F)c1 has Efficacy strictly less than 70%
### Response Y

### Prompt Answer whether the compound N=C(N)N/N=C(\c1ccccc1)c1ccc(Cl)c(Cl)c1 has Efficacy strictly less than 70%
### Response Y

### Prompt Answer whether the compound N=C(N)N/N=C/c1ccc(Br)c(Br)c1 has Efficacy strictly less than 70%
### Response N

### Prompt Answer whether the compound N=C(N)N/N=C/c1ccc(-c2ccccc2C(F)(F)F)o1 has Efficacy strictly less than 70%
### Response N

### Prompt Answer whether the compound C/C(=N\N=C(N)N)c1ccc(Cl)c(Cl)c1 has Efficacy strictly less than 70%
### Response Y

Source of measurements: ChEMBL document CHEMBL1154595
